- measurement protocol: Administered equivalent dose (AED) by reverse dosimetry
- Design: species or system human
- particulars: from Css and AC50 POD by reverse dosimetry
endpoint name: AED
Express your answer as a number followed by its unit.

Example entries and their recorded answers appear below.
O=C(O)CCC(F)(F)C(F)(F)C(F)(F)C(F)(F)C(F)(F)F [5:3 FTCA, 2H,2H,3H,3H-Perfluorooctanoic acid] = 0.99 mg/kg/day
O=S(=O)(O)CCC(F)(F)C(F)(F)C(F)(F)C(F)(F)C(F)(F)C(F)(F)F [6:2 FTS, 6:2 Fluorotelomer sulfonic acid] = 0.89 mg/kg/day
O=C(O)C(F)(F)C(F)(F)C(F)(F)C(F)(F)C(F)(F)C(F)(F)C(F)F [8H-PFOA, 8H-Perfluorooctanoic acid] = 0.04 mg/kg/day

### Prompt Recall and state the measured AED for O=S(=O)(O)C(F)(F)C(F)(F)C(F)(F)C(F)(F)C(F)(F)C(F)(F)C(F)(F)C(F)(F)F [PFOS, Perfluorooctanesulfonic acid] .
### Response 0.08 mg/kg/day

### Prompt Recall and state the measured AED for O=S(=O)(O)C(F)(F)C(F)(F)C(F)(F)C(F)(F)C(F)(F)C(F)(F)F [PFHxS, Perfluorohexanesulfonic acid] .
### Response 0.033 mg/kg/day

### Prompt Recall and state the measured AED for O=C(O)CCC(F)(F)C(F)(F)C(F)(F)C(F)(F)C(F)(F)C(F)(F)F [6:3 FTCA, 6:3 Fluorotelomer carboxylic acid] .
### Response 0.18 mg/kg/day

---

- measurement protocol: IVIVE: steady-state concentration (Css), generic HTTK model
- Parameters: species or system human
- particulars: QL 1500000 uL/min
- Description: IVIVE was performed as previously described to calculate human steady-state concentrations (Css). Briefly, experimental plasma protein binding data presented elsewhere were transformed to fraction unbound in blood using blood-to-plasma partitioning values. Experimental Clint values generated here are used in conjunction with relevant liver scalars to scale up to estimate whole liver clearance. […]
endpoint name: CLhep (L/h)
Provide only the numeric value, understood in L/h.

### Prompt Recall and state the measured CLhep for O=C([O-])C(F)(F)C(F)(F)C(F)(F)C(F)(F)C(F)(F)C(F)(F)C(F)(F)F.[K+] [Potassium perfluorooctanoate (KPFOA)] .
### Response 0.000

### Prompt Recall and state the measured CLhep for O=C(O)CCC(F)(F)C(F)(F)C(F)(F)F .
### Response 0.000

---

As shown below, each of these compounds has a reported Unadj Clint value.
- Tested on: pooled primary human hepatocyte suspensions
- measurement protocol: Hepatic clearance assay (substrate depletion, LC-MS)
- particulars: unadjusted hepatic intrinsic clearance, pooled primary human hepatocyte suspensions; Table S4; in µL/min/10^6 cells

Example entries and their recorded answers appear below.
O=C(O)C(F)(F)C(F)(F)OC(F)(F)F = 0.00
O=C(O)CCC(F)(F)C(F)(F)C(F)(F)C(F)(F)C(F)(F)C(F)(F)C(F)(F)F = 19.74
CNS(=O)(=O)C(F)(F)C(F)(F)C(F)(F)C(F)(F)C(F)(F)C(F)(F)C(F)(F)C(F)(F)F [N-Methylperfluorooctanesulfonamide] = 33.23
O=C(O)C(F)(F)C(F)(F)C(F)(F)C(F)(F)C(F)(F)C(F)(F)C(F)(F)F [Sodium perfluorooctanoate] = 2.34
O=S(=O)(O)CCC(F)(F)C(F)(F)C(F)(F)C(F)(F)C(F)(F)C(F)(F)F = 1.40

### Prompt Recall and state the measured Unadj Clint for O=C(O)CCC(F)(F)C(F)(F)C(F)(F)C(F)(F)C(F)(F)F .
### Response 11.84

### Prompt Recall and state the measured Unadj Clint for O=C(O)CCC(F)(F)C(F)(F)C(F)(F)C(F)(F)C(F)(F)C(F)(F)F .
### Response 5.05
